Experiment: Solubility of compound A in Japanese Pharmacopoeia dissolution test fluids
Format: physicochemical
Details: pH 1.2, simulated gastric fluid; first fluid for a Dissolution Test of the Japanese Pharmacopoeia, Seventeenth Edition; read-out: solubility in an acidic pH range
Excerpt: When compound A was formulated, the solubility of compound A was confirmed based on a Dissolution Test of the Japanese Pharmacopoeia, Seventeenth Edition, and there was a large difference between an acidic pH range and a neutral pH range.
Property: solubility

                                item_smiles     result
0  Cc1nc(CN2CCS(=O)(=O)CC2)c2cc(C3CCC(C)(C)CC3)sc2n1  ~41 µg/mL

---

assay: Solubility of compound A in Japanese Pharmacopoeia dissolution test fluids; format: physicochemical; settings: pH 6.8, aqueous buffer; second fluid for a Dissolution Test of the Japanese Pharmacopoeia, Seventeenth Edition; read-out: solubility at a neutral pH range
Property: solubility

In [3]: df
Out[3]:
                                   compound    property      result
0  Cc1nc(CN2CCS(=O)(=O)CC2)c2cc(C3CCC(C)(C)CC3)sc2n1 [Compound A]  solubility  ~1.2 µg/mL
